# target under test: WNK1 (Homo sapiens, UniProt Q9H4A3)
# Sequence (Q9H4A3 whole entry): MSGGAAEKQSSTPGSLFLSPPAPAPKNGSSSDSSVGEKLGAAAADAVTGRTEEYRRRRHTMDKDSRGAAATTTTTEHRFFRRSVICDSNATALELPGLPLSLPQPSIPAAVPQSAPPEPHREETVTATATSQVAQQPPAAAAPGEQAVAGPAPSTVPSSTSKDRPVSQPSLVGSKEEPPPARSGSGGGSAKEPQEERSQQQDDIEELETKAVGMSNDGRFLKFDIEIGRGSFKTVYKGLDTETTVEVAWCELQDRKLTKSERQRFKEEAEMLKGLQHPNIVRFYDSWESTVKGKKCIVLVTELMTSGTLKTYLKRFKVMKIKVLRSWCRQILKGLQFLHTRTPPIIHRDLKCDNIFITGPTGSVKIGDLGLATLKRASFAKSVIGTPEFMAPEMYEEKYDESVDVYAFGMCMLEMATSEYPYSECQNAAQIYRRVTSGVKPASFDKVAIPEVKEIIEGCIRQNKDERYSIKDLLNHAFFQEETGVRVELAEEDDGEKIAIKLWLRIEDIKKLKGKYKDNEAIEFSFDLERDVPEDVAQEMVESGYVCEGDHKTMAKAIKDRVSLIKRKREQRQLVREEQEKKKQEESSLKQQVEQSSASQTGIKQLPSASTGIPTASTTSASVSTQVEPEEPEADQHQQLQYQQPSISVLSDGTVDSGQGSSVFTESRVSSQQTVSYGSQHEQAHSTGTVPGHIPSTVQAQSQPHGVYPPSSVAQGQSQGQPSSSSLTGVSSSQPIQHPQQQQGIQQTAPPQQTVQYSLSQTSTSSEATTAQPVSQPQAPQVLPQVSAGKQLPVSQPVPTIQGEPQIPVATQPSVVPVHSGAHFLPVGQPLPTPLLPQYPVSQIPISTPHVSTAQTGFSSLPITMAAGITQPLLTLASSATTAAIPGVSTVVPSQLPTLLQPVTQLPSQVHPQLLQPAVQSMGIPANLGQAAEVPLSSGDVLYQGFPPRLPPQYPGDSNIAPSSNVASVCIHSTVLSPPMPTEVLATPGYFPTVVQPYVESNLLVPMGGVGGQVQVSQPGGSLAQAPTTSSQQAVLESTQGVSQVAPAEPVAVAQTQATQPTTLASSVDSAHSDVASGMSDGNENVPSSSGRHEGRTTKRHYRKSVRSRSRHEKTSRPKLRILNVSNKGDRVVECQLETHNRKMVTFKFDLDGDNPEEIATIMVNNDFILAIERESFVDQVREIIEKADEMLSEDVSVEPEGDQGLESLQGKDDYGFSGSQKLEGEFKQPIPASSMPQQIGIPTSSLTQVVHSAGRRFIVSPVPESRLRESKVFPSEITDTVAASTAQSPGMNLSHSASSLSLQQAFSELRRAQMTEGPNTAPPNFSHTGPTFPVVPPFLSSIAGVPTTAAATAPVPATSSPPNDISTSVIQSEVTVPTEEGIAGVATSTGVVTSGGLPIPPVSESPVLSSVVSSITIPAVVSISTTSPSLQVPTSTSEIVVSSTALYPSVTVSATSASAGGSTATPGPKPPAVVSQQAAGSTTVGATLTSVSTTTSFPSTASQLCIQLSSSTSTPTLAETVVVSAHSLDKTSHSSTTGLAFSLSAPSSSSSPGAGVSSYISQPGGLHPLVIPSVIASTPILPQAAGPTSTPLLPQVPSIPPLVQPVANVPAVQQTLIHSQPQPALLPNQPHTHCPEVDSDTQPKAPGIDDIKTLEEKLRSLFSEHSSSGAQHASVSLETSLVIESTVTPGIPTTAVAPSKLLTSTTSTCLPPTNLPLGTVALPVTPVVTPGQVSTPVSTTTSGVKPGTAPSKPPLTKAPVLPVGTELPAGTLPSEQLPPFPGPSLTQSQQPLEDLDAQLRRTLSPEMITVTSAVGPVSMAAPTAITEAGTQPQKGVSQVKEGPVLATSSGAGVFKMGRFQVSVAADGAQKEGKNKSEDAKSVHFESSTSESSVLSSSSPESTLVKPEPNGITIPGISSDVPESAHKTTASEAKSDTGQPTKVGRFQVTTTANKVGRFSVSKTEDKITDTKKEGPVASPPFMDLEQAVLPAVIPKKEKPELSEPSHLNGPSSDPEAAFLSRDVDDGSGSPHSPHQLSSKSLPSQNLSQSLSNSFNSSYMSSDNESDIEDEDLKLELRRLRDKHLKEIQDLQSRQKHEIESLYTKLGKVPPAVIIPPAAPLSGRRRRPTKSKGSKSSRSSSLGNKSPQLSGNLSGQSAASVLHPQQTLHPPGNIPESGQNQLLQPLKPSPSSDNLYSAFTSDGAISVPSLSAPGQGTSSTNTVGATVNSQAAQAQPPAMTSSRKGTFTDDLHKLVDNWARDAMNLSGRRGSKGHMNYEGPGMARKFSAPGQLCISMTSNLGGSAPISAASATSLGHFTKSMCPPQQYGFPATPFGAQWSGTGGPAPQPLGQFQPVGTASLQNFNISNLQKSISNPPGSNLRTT
# assay notes: Kinase profiling (radiometric filter-binding)
# Format: biochemical
# run parameters: WNK1, 1 µM inhibitor; read-out: Residual activity, %
Square brackets hold non-standard residues; d marks the D form. Peptide text beside a SMILES is read from it. * marks the point of attachment. X3 = O=C(CCCCCNCc1nc2c(sc3cc(Br)cnc32)c(=O)[nH]1)*
measured metric: remaining activity at 1 µM (%)
Answers are plain numbers, in %.

compound	measurement units	remaining activity at 1 µM
N=C(N)NCCC[C@@H](NC(=O)CNC(=O)[C@@H](CCCNC(=N)N)NC(=O)[C@@H](CCCNC(=N)N)NC(=O)CCCCCCCNCc1nc2c(sc3ccc(Br)cc32)c(=O)[nH]1)C(=O)N[C@H](CCCCN)C(N)=O [Compound 2, BBTP-Aoc-(D-Arg)2-Gly-D-Arg-D-Lys-NH2]	%	93
N=C(N)NCCC[C@@H](NC(=O)CNC(=O)[C@@H](CCCNC(=N)N)NC(=O)[C@@H](CCCNC(=N)N)NC(=O)CCCCCCCNCc1nc2c(sc3cc(Br)cnc32)c(=O)[nH]1)C(=O)N[C@H](CCCCN)C(N)=O [Compound 1, BPTP-Aoc-(D-Arg)2-Gly-D-Arg-D-Lys-NH2]	%	96
N=C(N)NCCC[C@@H](NC(=O)CNC(=O)[C@@H](CCCNC(=N)N)NC(=O)[C@@H](CCCNC(=N)N)NC(=O)Cn1cc(CNCc2nc3c(sc4ccc(Br)cc43)c(=O)[nH]2)nn1)C(=O)N[C@H](CCCCN)C(N)=O [Compound 3, BBTP-Amt-(D-Arg)2-Gly-D-Arg-D-Lys-NH2]	%	104
N=C(N)NCCC[C@@H](NC(=O)CCCCCNC(=O)Cn1cnc2c(I)c(I)c(I)c(I)c21)C(=O)N[C@H](CCCNC(=N)N)C(=O)N[C@H](CCCNC(=N)N)C(=O)N[C@H](CCCNC(=N)N)C(=O)N[C@H](CCCNC(=N)N)C(=O)N[C@H](CCCNC(=N)N)C(=O)N[C@H](CCCCN)C(N)=O [ARC-3125, TIBI-CH2-C(=O)-Ahx-(D-Arg)6-D-Lys-NH2]	%	105

Kindly consider the entry below.
response.value for N=C(N)NCCC[C@@H](NC(=O)CCCCCNCc1nc2c(sc3cc(Br)cnc32)c(=O)[nH]1)C(=O)N[C@H](CCCNC(=N)N)C(=O)N[C@H](CCCNC(=N)N)C(=O)N[C@H](CCCNC(=N)N)C(=O)N[C@H](CCCNC(=N)N)C(=O)N[C@H](CCCNC(=N)N)C(=O)N[C@H](CCCCN)C(N)=O [ARC-3126, BPTP-Ahx-(D-Arg)6-D-Lys-NH2] (X3-[dR][dR][dR][dR][dR][dR][dK]-NH2) (field: remaining activity at 1 µM) = 107

---

# target under test: EIF2AK3 (Homo sapiens, UniProt Q9NZJ5)
# Sequence (Q9NZJ5 30-1116): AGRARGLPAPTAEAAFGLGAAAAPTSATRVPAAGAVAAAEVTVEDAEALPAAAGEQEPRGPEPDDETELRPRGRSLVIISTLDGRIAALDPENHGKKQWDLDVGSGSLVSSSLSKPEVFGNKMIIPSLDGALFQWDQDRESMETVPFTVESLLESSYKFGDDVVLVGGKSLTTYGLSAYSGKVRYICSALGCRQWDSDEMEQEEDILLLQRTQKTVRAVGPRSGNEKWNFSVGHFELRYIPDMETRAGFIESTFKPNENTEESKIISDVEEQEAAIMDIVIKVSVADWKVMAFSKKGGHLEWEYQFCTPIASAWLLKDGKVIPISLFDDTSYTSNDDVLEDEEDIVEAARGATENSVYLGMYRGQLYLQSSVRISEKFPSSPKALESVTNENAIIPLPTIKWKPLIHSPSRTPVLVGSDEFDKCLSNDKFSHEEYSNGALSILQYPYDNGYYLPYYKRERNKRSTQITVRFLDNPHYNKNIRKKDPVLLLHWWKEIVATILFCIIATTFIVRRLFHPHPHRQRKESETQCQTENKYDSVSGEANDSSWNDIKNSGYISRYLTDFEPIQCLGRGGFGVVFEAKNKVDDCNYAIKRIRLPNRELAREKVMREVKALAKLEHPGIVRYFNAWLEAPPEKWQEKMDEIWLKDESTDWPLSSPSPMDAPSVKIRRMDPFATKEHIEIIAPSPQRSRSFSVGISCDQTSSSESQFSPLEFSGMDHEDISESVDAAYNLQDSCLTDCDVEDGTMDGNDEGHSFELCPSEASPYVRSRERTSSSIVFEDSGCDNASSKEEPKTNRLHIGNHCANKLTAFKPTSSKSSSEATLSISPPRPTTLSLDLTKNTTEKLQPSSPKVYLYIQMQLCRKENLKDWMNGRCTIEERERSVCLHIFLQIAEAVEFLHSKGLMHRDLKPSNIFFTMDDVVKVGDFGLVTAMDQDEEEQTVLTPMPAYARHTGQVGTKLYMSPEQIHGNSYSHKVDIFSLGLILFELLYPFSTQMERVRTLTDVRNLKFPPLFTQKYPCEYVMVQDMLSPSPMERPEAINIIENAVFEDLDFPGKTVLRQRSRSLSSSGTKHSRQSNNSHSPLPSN
# assay notes: Kinase profiling (radiometric filter-binding)
# Format: biochemical
# run parameters: EIF2AK3, 1 µM inhibitor; read-out: Residual activity, %
Square brackets hold non-standard residues; d marks the D form. Peptide text beside a SMILES is read from it. * marks the point of attachment. X3 = O=C(CCCCCNCc1nc2c(sc3cc(Br)cnc32)c(=O)[nH]1)*
measured metric: remaining activity at 1 µM (%)
One number for each entry, in %.

compound	remaining activity at 1 µM, %
N=C(N)NCCC[C@@H](NC(=O)CNC(=O)[C@@H](CCCNC(=N)N)NC(=O)[C@@H](CCCNC(=N)N)NC(=O)CCCCCCCNCc1nc2c(sc3ccc(Br)cc32)c(=O)[nH]1)C(=O)N[C@H](CCCCN)C(N)=O	98
N=C(N)NCCC[C@@H](NC(=O)CCCCCNCc1nc2c(sc3cc(Br)cnc32)c(=O)[nH]1)C(=O)N[C@H](CCCNC(=N)N)C(=O)N[C@H](CCCNC(=N)N)C(=O)N[C@H](CCCNC(=N)N)C(=O)N[C@H](CCCNC(=N)N)C(=O)N[C@H](CCCNC(=N)N)C(=O)N[C@H](CCCCN)C(N)=O [ARC-3126, BPTP-Ahx-(D-Arg)6-D-Lys-NH2] (X3-[dR][dR][dR][dR][dR][dR][dK]-NH2)	60

Let us examine a further case.
Briefly, remaining activity at 1 µM measured for `N=C(N)NCCC[C@@H](NC(=O)CCCCCNC(=O)Cn1cnc2c(I)c(I)c(I)c(I)c21)C(=O)N[C@H](CCCNC(=N)N)C(=O)N[C@H](CCCNC(=N)N)C(=O)N[C@H](CCCNC(=N)N)C(=O)N[C@H](CCCNC(=N)N)C(=O)N[C@H](CCCNC(=N)N)C(=O)N[C@H](CCCCN)C(N)=O` : 11

---

I'd be grateful if you could share measured remaining activity at 1 µM for these entries.
# target under test: PAK4 (Homo sapiens)
# Sequence (O96013 whole entry): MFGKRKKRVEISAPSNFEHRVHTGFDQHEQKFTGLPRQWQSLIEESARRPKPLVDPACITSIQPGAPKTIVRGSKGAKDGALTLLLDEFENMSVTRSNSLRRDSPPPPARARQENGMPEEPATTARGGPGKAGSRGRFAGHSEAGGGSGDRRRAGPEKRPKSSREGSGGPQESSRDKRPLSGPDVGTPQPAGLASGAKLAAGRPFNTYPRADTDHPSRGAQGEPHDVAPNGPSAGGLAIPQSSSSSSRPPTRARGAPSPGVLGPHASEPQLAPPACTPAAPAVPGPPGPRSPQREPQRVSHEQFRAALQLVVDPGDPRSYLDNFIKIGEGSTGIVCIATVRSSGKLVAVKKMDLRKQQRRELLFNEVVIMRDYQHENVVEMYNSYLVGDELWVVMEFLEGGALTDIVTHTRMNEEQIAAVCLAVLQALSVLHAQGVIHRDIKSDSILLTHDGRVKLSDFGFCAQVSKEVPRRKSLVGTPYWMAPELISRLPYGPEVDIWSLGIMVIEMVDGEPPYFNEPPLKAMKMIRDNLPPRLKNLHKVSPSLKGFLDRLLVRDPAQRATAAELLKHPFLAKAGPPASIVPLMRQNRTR
# assay notes: Kinase profiling (radiometric filter-binding)
# Assay type: biochemical
# run parameters: PAK4, 1 µM inhibitor; read-out: Residual activity, %
One number for each entry, in %.

Consider the following illustrative entries.
smi	remaining activity at 1 µM, %
N=C(N)NCCC[C@@H](NC(=O)CNC(=O)[C@@H](CCCNC(=N)N)NC(=O)[C@@H](CCCNC(=N)N)NC(=O)CCCCCCCNCc1nc2c(sc3cc(Br)cnc32)c(=O)[nH]1)C(=O)N[C@H](CCCCN)C(N)=O	91
N=C(N)NCCC[C@@H](NC(=O)CNC(=O)[C@@H](CCCNC(=N)N)NC(=O)[C@@H](CCCNC(=N)N)NC(=O)Cn1cc(CNCc2nc3c(sc4ccc(Br)cc43)c(=O)[nH]2)nn1)C(=O)N[C@H](CCCCN)C(N)=O	77

The value of remaining activity at 1 µM measured for the compound `N=C(N)NCCC[C@@H](NC(=O)CCCCCNC(=O)Cn1cnc2c(I)c(I)c(I)c(I)c21)C(=O)N[C@H](CCCNC(=N)N)C(=O)N[C@H](CCCNC(=N)N)C(=O)N[C@H](CCCNC(=N)N)C(=O)N[C@H](CCCNC(=N)N)C(=O)N[C@H](CCCNC(=N)N)C(=O)N[C@H](CCCCN)C(N)=O` turned out to be 50

---

# target under test: DYRK1A (Homo sapiens, UniProt Q13627)
# assay notes: Kinase profiling (radiometric filter-binding)
# Format: biochemical
# run parameters: 1 µM inhibitor, read-out: Residual activity, %
Can you tell me remaining activity at 1 µM for the items I'm about to list?
One number for each entry, in %.

Consider the worked cases shown below.
smi	target under test	measured value
N=C(N)NCCC[C@@H](NC(=O)CNC(=O)[C@@H](CCCNC(=N)N)NC(=O)[C@@H](CCCNC(=N)N)NC(=O)CCCCCCCNCc1nc2c(sc3ccc(Br)cc32)c(=O)[nH]1)C(=O)N[C@H](CCCCN)C(N)=O	DYRK1A (Homo sapiens, UniProt Q13627)	5
N=C(N)NCCC[C@@H](NC(=O)CNC(=O)[C@@H](CCCNC(=N)N)NC(=O)[C@@H](CCCNC(=N)N)NC(=O)Cn1cc(CNCc2nc3c(sc4ccc(Br)cc43)c(=O)[nH]2)nn1)C(=O)N[C@H](CCCCN)C(N)=O	DYRK1A (Homo sapiens, UniProt Q13627)	37
CN(C)c1ccc2c(c1)Oc1cc(N(C)C)ccc1C21OC(=O)c2cc(C(=O)NCCCC[C@@H](NC(=O)[C@@H](CCCNC(=N)N)NC(=O)CNC(=O)[C@@H](CCCNC(=N)N)NC(=O)[C@@H](CCCNC(=N)N)NC(=O)CCCCc3cn(Cc4nc5c(sc6ccc(Br)cc65)c(=O)[nH]4)nn3)C(N)=O)ccc21	DYRK1A (Homo sapiens, UniProt Q13627)	37

// each compound listed below needs its remaining activity at 1 µM
1. N=C(N)NCCC[C@@H](NC(=O)CCCCCNC(=O)Cn1cnc2c(I)c(I)c(I)c(I)c21)C(=O)N[C@H](CCCNC(=N)N)C(=O)N[C@H](CCCNC(=N)N)C(=O)N[C@H](CCCNC(=N)N)C(=O)N[C@H](CCCNC(=N)N)C(=O)N[C@H](CCCNC(=N)N)C(=O)N[C@H](CCCCN)C(N)=O
2. N=C(N)NCCC[C@@H](NC(=O)CNC(=O)[C@@H](CCCNC(=N)N)NC(=O)[C@@H](CCCNC(=N)N)NC(=O)CCCCCCCNCc1nc2c(sc3cc(Br)cnc32)c(=O)[nH]1)C(=O)N[C@H](CCCCN)C(N)=O

[28, 74]
